Each recorded value in this set is attributed to the RNAGym collection of RNA variant scans (doi:10.7554/elife.80360).

Below is a list of entries, each paired with its recorded self-cleavage value.
B1: Hairpin Ribozyme (parent)
chain: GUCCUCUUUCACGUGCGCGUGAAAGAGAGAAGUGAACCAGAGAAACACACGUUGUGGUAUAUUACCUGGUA

- Variants of: B1
- assay.text: self-cleavage, relative activity (ratio to wild type); higher = more cleavage; co-transcriptional

* C48A U52G | 0.131
* G13C G57U | 0.164
* C10A G40C | 0.158
* U9A U58C | 0.72
* G54C U55G | 0.25
* C4G A44C | 0.136

Specify reported self-cleavage for the variant shown: C38A A41C 0.183

Specify reported self-cleavage for the variant shown: G25C G57U 0.216

Specify reported self-cleavage for the variant shown: C46U U62C 0.213

Specify reported self-cleavage for the variant shown: G17U U63C 0.164

Specify reported self-cleavage for the variant shown: A45C C48A 0.0612

Specify reported self-cleavage for the variant shown: C10A A41U 1.04

Specify reported self-cleavage for the variant shown: U2C A36U 0.207

Specify reported self-cleavage for the variant shown: G1C A30U 0.0862
